Assign IC50 to each entry below.
system.under.test: SHP2 (Homo sapiens (Human), UniProt Q06124)
Sequence (Q06124 whole entry): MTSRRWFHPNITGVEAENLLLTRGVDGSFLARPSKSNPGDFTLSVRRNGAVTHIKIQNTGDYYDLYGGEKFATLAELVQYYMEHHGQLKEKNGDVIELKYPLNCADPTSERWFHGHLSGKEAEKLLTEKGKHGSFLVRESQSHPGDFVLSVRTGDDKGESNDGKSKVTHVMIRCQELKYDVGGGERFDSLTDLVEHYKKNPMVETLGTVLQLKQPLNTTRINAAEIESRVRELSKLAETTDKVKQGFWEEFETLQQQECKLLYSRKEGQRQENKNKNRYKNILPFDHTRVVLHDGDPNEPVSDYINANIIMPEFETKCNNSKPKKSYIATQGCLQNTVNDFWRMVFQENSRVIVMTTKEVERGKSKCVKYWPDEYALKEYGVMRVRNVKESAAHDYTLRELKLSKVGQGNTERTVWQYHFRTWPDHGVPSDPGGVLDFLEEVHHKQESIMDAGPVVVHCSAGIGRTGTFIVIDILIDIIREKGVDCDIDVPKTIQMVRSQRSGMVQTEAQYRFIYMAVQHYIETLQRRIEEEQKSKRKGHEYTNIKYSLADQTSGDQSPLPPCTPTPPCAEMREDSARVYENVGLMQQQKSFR
assay.overview: SHP2 Allosteric Inhibition Assay
Assay type: biochemical
test.context: 0.5 nM SHP2 activated with 0.5 μM peptide IRS1_pY1172(dPEG8)pY1222, surrogate substrate DiFMUP, fluorescence
Answers are plain numbers, in µM.

These recorded examples may help you get a feel for the data.
> print(dat)
                                   molecule  unit.name  result.number
1  Nc1cc(Sc2ncc(N3CCC4(CCC[C@H]4N)CC3)nc2N)c(Cl)c(Cl)n1 [Example 87]         µM         0.0093
2  COc1nccc(Sc2ncc(N3CCC4(CCC[C@H]4N)CC3)nc2N)c1Cl [Example 78]         µM          0.015
3  C[C@@H]1CCC2(CCN(c3cnc(Sc4ccnc(N)c4Cl)c(N)n3)CC2)[C@@H]1N [Example 56]         µM          0.009

Dear colleague, could you send me IC50 for each of the items below? Thanks.
1. Nc1nc(N2CCC3(CC2)C[C@H](F)C[C@H]3N)cnc1Sc1ccnc(N)c1Cl [Example 92]
2. CN(C)c1nccc(Sc2ncc(N3CCC4(CCC[C@H]4N)CC3)nc2N)c1Cl [Example 75]

[0.01, 0.01]

From: patent US10336774B2
